These entries and their values trace back to the Human Domainome abundance scans (Beltran et al. 2025).

B1: Far upstream element-binding protein 1, residues 184 to 257; numbered along this chain, Q96AE4 (parent)
chain: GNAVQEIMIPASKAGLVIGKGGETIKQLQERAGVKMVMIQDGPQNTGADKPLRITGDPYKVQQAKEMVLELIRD

- Variants of: B1
- TEST_DETAILS: abundance fitness (aPCA) (normalised: wild type 0, dead -1); higher = more abundant; growth selection in yeast, the domain comes from the species named
- CONDITION_PARAMETERS: Homo sapiens

[
  {
    "SEQUENCE_ENTRY": "GNAVQEIMIPASKAGLVIGKGGETIKQLQERAGVKMVMIQDGPQNTGADKPLRITGDPYKVQQAKEMVSELIRD",
    "abundance fitness": -0.015
  },
  {
    "SEQUENCE_ENTRY": "GNAVQEIMIPASKAGLVIGEGGETIKQLQERAGVKMVMIQDGPQNTGADKPLRITGDPYKVQQAKEMVLELIRD",
    "abundance fitness": -0.01
  },
  {
    "SEQUENCE_ENTRY": "GNAVQEIMIPASKAGQVIGKGGETIKQLQERAGVKMVMIQDGPQNTGADKPLRITGDPYKVQQAKEMVLELIRD",
    "abundance fitness": -0.093
  },
  {
    "SEQUENCE_ENTRY": "GNAVQEIMIPASKAGLVIGKGGETIKQLQERAGVKMVMIQDGPQNTGADKPLRFTGDPYKVQQAKEMVLELIRD",
    "abundance fitness": -0.175
  },
  {
    "SEQUENCE_ENTRY": "GNAVQEIMIPASKAGLVIGKGGETIKQLQERAGVKTVMIQDGPQNTGADKPLRITGDPYKVQQAKEMVLELIRD",
    "abundance fitness": -0.585
  },
  {
    "SEQUENCE_ENTRY": "GNAVQEIMIPASKAGLVIGGGGETIKQLQERAGVKMVMIQDGPQNTGADKPLRITGDPYKVQQAKEMVLELIRD",
    "abundance fitness": -0.105
  },
  {
    "SEQUENCE_ENTRY": "GNAVQEIMIPASKAGLVIGKGGETIKQLQERAGVKMVFIQDGPQNTGADKPLRITGDPYKVQQAKEMVLELIRD",
    "abundance fitness": 0.037
  },
  {
    "SEQUENCE_ENTRY": "GNAVQEIMIPASKAGLVIGKGGETIKQLQERAGVKMVMIQDGPQNTGADKPLRITGDPYKVQQAKEMVLHLIRD",
    "abundance fitness": -0.081
  },
  {
    "SEQUENCE_ENTRY": "GNAVQEIMIPASKAGLVIGKGGETIKQLQERAGVKMVMIQDGPQNTGADKPLRITGDPYKVQQAKEMVLELIAD",
    "abundance fitness": 0.111
  },
  {
    "SEQUENCE_ENTRY": "GNAVQEIMIPASKAGLVIGKGGETIKQLQERAGVKMVMIQDGPQNTGADKPLRITGDPYKVQQAKEMVRELIRD",
    "abundance fitness": 0.011
  },
  {
    "SEQUENCE_ENTRY": "GNAVQEIMIPASKAGLVIGKGGETIKQLQERAGVKMVMIQDGPQNTGADKPLRITGDPYKVQQAKEMVLELIRL",
    "abundance fitness": -0.277
  },
  {
    "SEQUENCE_ENTRY": "GNAVQEIMIPASKAGLVIGKGGETIKQLQERAGVKMVMIQDGPQNTGADKPLRITGDPYKVQQAKEMVLELIRE",
    "abundance fitness": -0.058
  },
  {
    "SEQUENCE_ENTRY": "GNAVQEIMIPASKAGLVIGKGGETIKQLQEVAGVKMVMIQDGPQNTGADKPLRITGDPYKVQQAKEMVLELIRD",
    "abundance fitness": -0.113
  },
  {
    "SEQUENCE_ENTRY": "GNAVQEIMIPASKAGLVIGKGGETIKQLQERAGVKMVMIQDGPQNTGADKPLRITGDPYKLQQAKEMVLELIRD",
    "abundance fitness": -0.286
  },
  {
    "SEQUENCE_ENTRY": "GNAVQEIMIPASKAGLVIGKGGETIKQLQERAGVKMVMIQDGPQNTGAGKPLRITGDPYKVQQAKEMVLELIRD",
    "abundance fitness": -0.084
  },
  {
    "SEQUENCE_ENTRY": "GNAVQEIMIPASKAGLVIGKGGETIKQLQERAGVKMVMIQVGPQNTGADKPLRITGDPYKVQQAKEMVLELIRD",
    "abundance fitness": -0.023
  },
  {
    "SEQUENCE_ENTRY": "GNAVQEIMIPAFKAGLVIGKGGETIKQLQERAGVKMVMIQDGPQNTGADKPLRITGDPYKVQQAKEMVLELIRD",
    "abundance fitness": -0.207
  },
  {
    "SEQUENCE_ENTRY": "GNAVQEIMIPASKYGLVIGKGGETIKQLQERAGVKMVMIQDGPQNTGADKPLRITGDPYKVQQAKEMVLELIRD",
    "abundance fitness": -0.039
  },
  {
    "SEQUENCE_ENTRY": "GNAVQEIMIPASKAGLVIGKGGETIKQLQERSGVKMVMIQDGPQNTGADKPLRITGDPYKVQQAKEMVLELIRD",
    "abundance fitness": -0.013
  },
  {
    "SEQUENCE_ENTRY": "GNAVQEIMIPASKAGLVIGKGGETPKQLQERAGVKMVMIQDGPQNTGADKPLRITGDPYKVQQAKEMVLELIRD",
    "abundance fitness": -0.64
  },
  {
    "SEQUENCE_ENTRY": "GNAVQEIMIPASKAGLVIGKGGETIKQLQERAGVKMVMIQDGPQNTTADKPLRITGDPYKVQQAKEMVLELIRD",
    "abundance fitness": -0.018
  },
  {
    "SEQUENCE_ENTRY": "GNAVQEIMIPASKAGLVIGKGGETIKRLQERAGVKMVMIQDGPQNTGADKPLRITGDPYKVQQAKEMVLELIRD",
    "abundance fitness": -0.011
  }
]
